These data points were gathered from PubChem BioAssay AID652175.

METHOD DESCRIPTION: qHTS Assay for Lipid Storage Modulators: S3 Assay against Probe and Analogs
CONDITION CONTEXT: Drosophila S3 cells, BODIPY lipid droplet fluorescence, 18-24 h, oleic acid added to induce droplets; series mostly up to 46.1 µM
Inconclusive results are not listed. Activity calls are given as the source filed them. Calls follow the shape of the dose curve; as a rule, active = well fitted inhibition curve with a large enough effect; inconclusive = small, poorly fitted or top-dose-only effect; inactive = no such curve, though single readings can be large or run the other way.
Returns: one label drawn from active, inactive

Would you please look over these solved cases?
O=C(NC1CCCc2c1cnn2-c1ccc(F)cc1F)c1ccc(C(=O)c2ccccc2)cc1 (stereo unspecified)    inactive
CCOc1ccc(CCNC(=O)c2cc3sccc3n2CCN2CCN(C)CC2)cc1OCC    active
O=C(NC1CCCc2c1cnn2CCO)c1ccccn1 (stereo unspecified)    inactive
O=C(NC1CCCc2c1cnn2-c1ccc(F)cc1F)C1CCCCC1 (stereo unspecified)    inactive
CCOc1cc(CCNC(=O)c2cc3sccc3n2Cc2ccccc2)cc(F)c1OCC    active
CCOc1ccc(CCNC(=O)Cc2ccccc2)cc1OCC    inactive
O=C(NC1CCCc2c1cnn2-c1ccc(F)cc1F)c1cnon1 (stereo unspecified)    inactive
O=C(Nc1cccc2c1cnn2-c1ccc(F)cc1)c1ccccn1    inactive
CCOc1ccc(CCNC(=O)c2cc3c(s2)CCC3)cc1OCC    active
CCOC(=O)C1CCN(C(=O)C(C)(C)NC(=O)Nc2ccc([N+](=O)[O-])cc2)CC1    inactive

Prompt: # lookup: test call for CN(C)Cc1ccc(-c2nc3cccc4c3n2CCNC4=O)cc1
Completion: inactive
